Biological target: T1, FLAG-Mm_Fpr2 C-terminally fused to Renilla Luciferase 8 (mouse, UniProt O88536 1-351)
T1 sequence (looked up): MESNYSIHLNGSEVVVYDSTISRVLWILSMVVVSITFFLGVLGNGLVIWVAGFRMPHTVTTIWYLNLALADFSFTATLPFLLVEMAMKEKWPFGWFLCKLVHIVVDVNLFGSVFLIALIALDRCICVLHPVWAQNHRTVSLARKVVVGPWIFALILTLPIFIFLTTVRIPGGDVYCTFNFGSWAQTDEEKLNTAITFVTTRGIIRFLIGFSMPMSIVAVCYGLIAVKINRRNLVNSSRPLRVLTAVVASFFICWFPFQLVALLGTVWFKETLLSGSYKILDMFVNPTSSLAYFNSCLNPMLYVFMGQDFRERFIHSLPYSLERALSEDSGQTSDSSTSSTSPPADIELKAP
Assay: cell-based or functional assay
Where no end group is shown, it is not given here. [ ]: non-standard residue; d: D form. The star is where a group is joined. Palmitoyl = CCCCCCCCCCCCCCCC(=O)*; For = O=C*
TEST_READOUT: BRET of receptor-RLuc8 with Arrestin 3-YFP: Emax (% of 1 μM WKYMVm) (%)
Give the quantity in %, number only.

QUERY: Would you mind telling me what BRET of receptor-RLuc8 with Arrestin 3-YFP: Emax (% of 1 μM WKYMVm) value was observed for WKYMV[dM] (the last residue is the D form; the bought peptide is probably also an amide (surmise); source: bought: Tocris) [WKYMVm] ?
RESULT: 101

QUERY: Likewise for {Palmitoyl-Palmitoyl}-KIHKKGMIKS (Pal is printed twice; the text speaks of N-terminal palmitoylation as the last step of the synthesis; also called pepducin; source: synthetic peptide (Fmoc solid phase, purified by preparative RP-HPLC)) [F2Pal10 (Pal-Pal-KIHKKGMIKS)] ?
RESULT: 33.4

QUERY: Likewise for For-MTPMRKINPLMKLIN [MCT-2 (Formyl-MTPMRKINPLMKLIN from Cytochrome b)] ?
RESULT: 12.1

QUERY: Likewise for For-Met-Leu-Phe [fMet-Leu-Phe (fMLF)] ?
RESULT: 22.7

QUERY: Likewise for For-MLFK [fMet-Leu-Phe-Lys (fMLFK)] ?
RESULT: 72.5

QUERY: Likewise for WKYMVM (synthetic hexapeptide, all L residues; also called L-enantiomer of WKYMVm; source: bought: Tocris) ?
RESULT: 94.3
